Origin of measurements: the nanobody polyreactivity screen of Harvey et al. (2022)

Test: yeast display, Sf9 membrane polyspecificity reagent, FACS + sequencing; frameworks hold sequencing errors
property-measured: polyreactivity (PSR sort gate)

Study these solved cases before continuing.
QVQLLESGGGLVQAGGSLRLSCAASGFTFTYYAMGWYRQAPGKERELVAAISRRGGSTYYADSVKGRFTISRDNAKNTVYLQMNSLKPEDTAVYYCARDYNSAVGMVYWGQGTQVTVSS ... high polyreactivity
QVQLVESGGGLVQAGGSLRLSCAASGTIFGSNAMGWYRQAPGKERELVAAISWRGGRTYYADSVKGRFSISRDYAKNTVYLQMYSLKPVETAVYYCAKRWRRRFVDVWSLYDYWGQGTQVTVSS ... low polyreactivity
QVQLQESGGGLVQAGGSLRRSCAASGSIFYHWAMGWYRQTPGKERELVASITSGGNTNYADSVKGRFTISRDNAKNTVYLPMDRLKPEDTAVYYCAADGYYGAWDLEYYYWGQGTQVTVSS ... low polyreactivity
QVQLVESCGGLVQAGGSLRLSCAASGSTFTIYAMGWYRQAPGKERELVAVISSSGGSTYYADSVKGRFTISRDNAKNTVYLQMNSLKPEDTAVYYCAADTRYFGGYLTLYYWGQGTQVTVSS ... low polyreactivity

Give its polyreactivity (PSR sort gate) value. Item: QVQLVESGGGLVQAGGSLRLSCAASGSTFYRYAMGWYRQAPGKERELVAAISRNGGSTYYSDSVKGRFTISRDNAKNTVYLQMNSLKPEDTAVYYCAAVWPYGSRVAPMDYWGQGTQVTVSS
high polyreactivity
